pIC50: −log10 of the molar value.
Below, pIC50 values reported for Coagulation factor X (Homo sapiens) across several publications.
Decide using pIC50: a value greater than or equal to 7 is True, a smaller one is False.

// known answers, use as guide
• CCN(C)C(=N)c1ccc(C(=O)N2CCN(S(=O)(=O)c3cc4cc(Cl)ccc4[nH]3)CC2)cc1 = True
• N=C(N)NCCC[C@H](NC(=O)[C@H](Cc1ccccc1F)NC(=O)[C@@H](Cc1ccccc1)NS(=O)(=O)Cc1ccccc1)C(=O)c1nccs1 = False
• CN1CCN=C1c1ccc(CN2CCN(S(=O)(=O)c3cc4cc(Cl)ccc4[nH]3)CC2=O)cc1 = True
• N=C(N)c1cccc(OC(C(=O)Nc2ccc(-c3ccccc3S(N)(=O)=O)cc2)c2ccccc2)c1 (configuration not stated) = True
• Cc1cc(C(=O)Nc2ccc(N3CCCNCC3)cc2)n(-c2ccc3cc(Cl)ccc3c2)n1 = True

In: Please indicate if the recorded pIC50 for COC(=O)C(Cc1cccc(C(=N)N)c1)C(/C=C/c1ccccc1)NC(=O)c1ccc(-c2ccc(OC)c(OC)c2)cc1 (configuration not stated) meets or exceeds 7.
Out: True

In: Please indicate if the recorded pIC50 for CC#Cc1ccc(-c2ccc(C(=O)NCC(C)C)cc2C(=O)O)c(C(=O)Nc2ccc(C(=N)N)cc2)c1 meets or exceeds 7.
Out: False

In: Please indicate if the recorded pIC50 for C/N=C(/N)N(C)Cc1ccc(C(=O)Nc2ccc(Cl)cc2C(=O)Nc2ccc(Cl)cn2)cc1 meets or exceeds 7.
Out: True

In: Please indicate if the recorded pIC50 for CC(=N)N1CC[C@H](Oc2ccc(C(Cc3cc4ccc(C(=N)N)cc4o3)C(=O)O)cc2)C1 (some centres not stated) meets or exceeds 7.
Out: False

In: Please indicate if the recorded pIC50 for CC(C)[C@H](NC(=O)[C@H](Cc1ccccc1)NNC(=O)NCc1ccc(Cl)c(Cl)c1)C(=O)N[C@@H](CCCNC(=N)N)C(=O)c1nccs1 meets or exceeds 7.
Out: False
